Listing: IC50 of selected compounds
test system: KC-1474:PC-9 EGFR-Del19/T790M/C797S; assay: Cell proliferation inhibition experiment (CCK-8), KC-1474; assay type: cell-based; conditions: Homo sapiens, 72 h

{"compound": "COc1cc(N2CCN(C)CC2)ccc1Nc1nc(N[C@H]2CC[C@@H](CO)CC2)c2c(C(=O)c3ccc(F)cc3)c[nH]c2n1 [Example 106]", "assayTarget": "KC-1474:PC-9 EGFR-Del19/T790M/C797S", "IC50": "0.1 to 1 µM"}
{"compound": "CN1CCN(c2ccc(Nc3nc(N[C@H]4CC[C@@H](CO)CC4)c4c(C(=O)c5ccc(F)cc5)c[nH]c4n3)cc2F)CC1 [Example 103]", "assayTarget": "KC-1474:PC-9 EGFR-Del19/T790M/C797S", "IC50": "< 0.1 µM"}
{"compound": "Cn1cc(Nc2nc(N[C@H]3CC[C@H](CO)CC3)c3c(C(=O)c4ccc(F)cc4)c[nH]c3n2)cn1 [Example 110]", "assayTarget": "KC-1474:PC-9 EGFR-Del19/T790M/C797S", "IC50": "0.1 to 1 µM"}
{"compound": "C=CC(=O)Nc1cccc(Oc2nc(Nc3ccc(N4CCN(C)CC4)c(F)c3)nc3[nH]ccc23)c1 [Avitinib, reference compound]", "assayTarget": "KC-1474:PC-9 EGFR-Del19/T790M/C797S", "IC50": "0.1 to 1 µM"}
{"compound": "CN1CCN(c2ccc(Nc3nc(N[C@H]4CC[C@@H](N)CC4)c4c(C(=O)c5ccc(F)cc5)c[nH]c4n3)cc2)CC1 [Example 86]", "assayTarget": "KC-1474:PC-9 EGFR-Del19/T790M/C797S", "IC50": "< 0.1 µM"}

Then there is this compound:
Need IC50, item CN1CCN(c2ccc(Nc3nc(N[C@H]4CC[C@H](CO)CC4)c4c(C(=O)c5ccc(F)cc5)c[nH]c4n3)cc2)CC1 [Example 42] < 0.1 µM

###

test system: KC-1474:PC-9 EGFR-Del19/T790M/C797S; test: Cell proliferation inhibition experiment (CCK-8), KC-1474; format: cell-based; conditions: Homo sapiens, 72 h
quantityKind: IC50

{"recordSmiles": "CCN1CCN(c2ccc(Nc3nc(N[C@H]4CC[C@@H](CO)CC4)c4c(C(=O)c5ccc(F)cc5)c[nH]c4n3)cc2)CC1", "IC50": "< 0.1 µM"}

Need IC50, item CN1CCN(c2ccc(Nc3nc(N[C@H]4CC[C@@H](O)CC4)c4c(C(=O)c5ccc(F)cc5)c[nH]c4n3)cc2)CC1 < 0.1 µM

Need IC50, item CN1CCN(c2ccc(Nc3nc(N[C@H]4CC[C@H](CO)CC4)c4c(C(=O)c5ccc(F)cc5)c[nH]c4n3)cc2F)CC1 < 0.1 µM

###

molecular target: EGFR-Del19/T790M/C797S kinase (Homo sapiens, UniProt P00533, C797S/T790M, form not given); assay: In-vitro enzyme experiment 2 (HTRF kinase assay), EGFR Del19 T790M C797S; type: biochemical; conditions: read-out: enzyme inhibition IC50 (nM) EGFR-Del19/T790M/C797S
Sequence (P00533 25-1210 T790M/C797S limits assumed, form open): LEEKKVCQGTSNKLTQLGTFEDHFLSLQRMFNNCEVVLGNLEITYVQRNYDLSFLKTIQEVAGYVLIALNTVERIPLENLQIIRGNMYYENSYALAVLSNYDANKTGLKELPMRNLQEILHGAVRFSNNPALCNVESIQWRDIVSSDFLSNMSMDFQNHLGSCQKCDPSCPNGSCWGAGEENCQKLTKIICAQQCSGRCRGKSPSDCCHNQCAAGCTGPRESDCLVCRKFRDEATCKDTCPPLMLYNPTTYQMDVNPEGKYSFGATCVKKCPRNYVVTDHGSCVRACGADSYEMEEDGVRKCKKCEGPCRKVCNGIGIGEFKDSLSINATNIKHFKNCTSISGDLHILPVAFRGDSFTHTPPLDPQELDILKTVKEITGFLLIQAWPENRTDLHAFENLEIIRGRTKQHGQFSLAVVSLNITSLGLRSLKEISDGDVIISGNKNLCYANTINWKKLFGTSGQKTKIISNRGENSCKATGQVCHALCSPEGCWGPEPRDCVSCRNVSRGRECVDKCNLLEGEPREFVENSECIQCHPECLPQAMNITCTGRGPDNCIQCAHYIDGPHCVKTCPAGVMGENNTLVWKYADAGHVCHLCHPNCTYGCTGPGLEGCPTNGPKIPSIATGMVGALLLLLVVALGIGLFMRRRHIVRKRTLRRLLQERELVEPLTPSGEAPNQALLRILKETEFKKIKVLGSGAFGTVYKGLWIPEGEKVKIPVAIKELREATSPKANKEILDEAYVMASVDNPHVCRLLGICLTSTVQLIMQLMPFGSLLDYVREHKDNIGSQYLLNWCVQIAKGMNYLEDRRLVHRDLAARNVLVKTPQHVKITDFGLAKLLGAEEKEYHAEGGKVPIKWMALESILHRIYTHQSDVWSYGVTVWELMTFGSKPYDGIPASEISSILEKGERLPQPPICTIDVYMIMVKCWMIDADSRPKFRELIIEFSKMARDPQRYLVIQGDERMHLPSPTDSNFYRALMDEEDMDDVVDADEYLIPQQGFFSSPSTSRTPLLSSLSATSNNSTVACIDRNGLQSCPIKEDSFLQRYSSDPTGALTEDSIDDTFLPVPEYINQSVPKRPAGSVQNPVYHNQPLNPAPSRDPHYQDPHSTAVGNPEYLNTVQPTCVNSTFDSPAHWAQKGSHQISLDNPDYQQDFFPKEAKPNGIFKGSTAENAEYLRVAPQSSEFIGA
quantityKind: IC50

{"compound": "CN1CCN(c2ccc(Nc3nc(N[C@H]4CC[C@H](O)CC4)c4c(C(=O)c5ccc(F)cc5)c[nH]c4n3)cc2)CC1 [Example 56]", "IC50": "10 to 100 nM"}
{"compound": "CN1CCN(c2ccc(Nc3nc(N[C@H]4CCOC4)c4c(C(=O)c5ccc(F)cc5)c[nH]c4n3)cc2)CC1 [Example 67]", "IC50": "100 to 600 nM"}
{"compound": "CN(C)CCOc1ccc(Nc2nc(N[C@H]3CC[C@@H](CO)CC3)c3c(C(=O)c4ccc(F)cc4)c[nH]c3n2)cc1 [Example 107]", "IC50": "10 to 100 nM"}

Need IC50, item CN1CCN(c2ccc(Nc3nc(NC4CCCCC4O)c4c(C(=O)c5ccc(F)cc5)c[nH]c4n3)cc2)CC1 (stereo not drawn) [Example 43] 100 to 600 nM

Need IC50, item CN1CCN(c2ccc(Nc3nc(N[C@H]4CC[C@H](CO)CC4)c4c(C(=O)c5ccc(F)cc5)c[nH]c4n3)cc2F)CC1 [Example 78] 10 to 100 nM

Need IC50, item CN1CCN(c2ccc(Nc3nc(N[C@@H]4C=C[C@H](CO)C4)c4c(C(=O)c5ccc(F)cc5)c[nH]c4n3)cc2)CC1 [Example 19] 10 to 100 nM

Need IC50, item O=C(c1ccc(F)c(F)c1F)c1c[nH]c2nc(Nc3ccc(N4CCOCC4)cc3)nc(N[C@H]3CC[C@H](CO)CC3)c12 [Example 108] 100 to 600 nM

Need IC50, item CN1CCN(c2ccc(Nc3nc(NC45CC6CC(CC(O)(C6)C4)C5)c4c(C(=O)c5ccc(F)cc5)c[nH]c4n3)cc2)CC1 [Example 70] 10 to 100 nM

Need IC50, item CN1CCN(c2ccc(Nc3nc(N[C@@H]4CC[C@@H](CO)OC4)c4c(C(=O)c5ccc(F)cc5)c[nH]c4n3)cc2)CC1 [Example 95] 10 to 100 nM

All values here come from patent US20250122202A1.
